Reference for the values: PubChem BioAssay

# assay text: binders from COS7 lysate, DM2A8 probe, primary screen, torsin A project, cell lysate, small-molecule microarray, fluorescence 635/667 (AID 1065)
# condition label: higher = more signal, COS7 lysate expressing mutant human TOR1A
quantity measured: composite z-score

compound: COc1ccc([Si](C)(C)[C@@H]2[C@@H](CC(=O)N3Cc4ccccc4C[C@H]3CO)O[C@]3(C(=O)N(Cc4cccc(N5C(=O)c6cccc7cccc5c67)c4)c4ccccc43)[C@H]2C)cc1
quantity measured: composite z-score
measured: 0.822
--
compound: COc1ccc(CCN2C(=O)[C@@]3(Cc4ccccc42)c2ccccc2C(=O)N(Cc2ccccc2OC)[C@H]3c2ccc(CO)cc2)cc1
quantity measured: composite z-score
measured: -0.277
--
compound: COc1cc2c(cc1O)C(C)N(Cc1ccc([N+](=O)[O-])o1)CC2 (centres undefined)
quantity measured: composite z-score
measured: 0.731

// next entry
composite z-score recorded for this compound, `Cc1ccc(S[C@]2(C(=O)O)CC(=O)N(Cc3ccccc3Cl)[C@@H]2c2ccc(CO)cc2I)cc1` , is 0.39

---

# subject of test: Alpha-bungarotoxin (Bungarus multicinctus)
# assay text: alpha-bungarotoxin binders on microarray, profiling panel, artefact control for SMM control protein annotation, biochemical, small-molecule microarray, Alexa647 label, 635/667 nm fluorescence (AID 1117)
# condition label: alpha-BTX-A647 binding fluorescence, higher = more signal
Output schema: class label derived from composite z-score. Mapping: band 1 = under 0.2, band 2 = from 0.2 up to 1, band 3 = 1 and over

compound: CC1=C[C@@]2(CO)C(=O)[C@]3(CO3)[C@@H]1[C@H]1[C@]2(C)C=C(CO)C(=O)[C@]12CO2
label value: band 2
--
compound: Cc1ccc(S[C@]2(C(=O)NCC(F)(F)F)CC(=O)N(Cc3ccccc3)[C@@H]2c2ccc(CO)cc2I)cc1
label value: band 3
--
compound: COc1cc2c(cc1O)C(C)N(Cc1ccc([N+](=O)[O-])o1)CC2 (stereo not given)
label value: band 3
--
compound: CO[C@H]1O[C@H](CO)[C@@H](OC(=O)Nc2ccccc2-c2ccccc2)[C@H](OC(=O)Nc2ccc3c(c2)OCO3)[C@H]1OC(=O)Nc1ccc2c(c1)OCO2
label value: band 3
--
compound: C[N+](C)(C)CCCC[C@@H]1NC(=O)[C@H]2C[C@@H](C(=O)NCCCCCCN)[C@@H](c3ccc(O)cc3)N2C1=O
label value: band 2
--
compound: COc1ccccc1CN1C(=O)c2ccccc2[C@@]2(Cc3ccccc3N(CC(F)(F)F)C2=O)[C@@H]1c1ccc(CO)cc1
label value: band 1

Categorize the following entry: O=C1OCCC=C[C@H]2OC34C=CCN(Cn5nnc6ccccc65)C(=O)[C@H]3N(CCCCCCO)C(=O)[C@@H]4C12 (stereo not given in full) band 1

Categorize the following entry: `CCCC[C@@H]1C[C@H]1[C@@H](NC(=O)c1cccs1)c1ccc(C(F)(F)F)cc1` band 2

Categorize the following entry: CC(C)N1CC=CC23O[C@@H]4C=CCOC(=O)[C@@H]4[C@H]2C(=O)N(CCCO)[C@@H]3C1=O (stereo not given in full) band 1

Categorize the following entry: CC(CO)N1C(=O)[C@@H]2[C@H]3C(=O)OCC=C[C@H]3OC23C=CCN(C(C)(C)C)C(=O)[C@@H]13 (stereo not given in full) band 1

Categorize the following entry: `CC(C)[Si](C#CCCCC#N)(O[C@H](c1ccccc1)c1cn([C@H](CO)Cc2ccccc2)nn1)C(C)C` band 2

Categorize the following entry: `COCCOC(=O)N1C(=O)[C@@]2(c3cc(C#CC4(O)CCCCCC4)ccc31)[C@H](c1ccc(O)cc1)N1[C@H](c3ccccc3)[C@H](c3ccccc3)OC(=O)[C@H]1[C@@H]2C(=O)NC[C@H](O)c1ccccc1` band 3

Categorize the following entry: `COC(=O)c1c(CC[C@@H](CO)NC(=O)N2CCC[C@H]2Cn2cc(Cc3ccccc3)nn2)oc(C(C)=O)c1C(=O)OC` band 1

---

# assay text: inhibitors of hydroxyurea-induced Chk1 phosphorylation, primary screen, imaging, HeLa, phospho-Chk1 antibody, percent positive cells (AID 1186)
# condition label: hydroxyurea-induced phospho-Chk1 immunofluorescence imaging, higher = more signal
Measured z-score by item
Just the number, please.

compound: C=CCNC(=O)[C@@H]1[C@H]2C(=O)O[C@H](c3ccccc3)[C@H](c3ccccc3)N2[C@H](c2ccc(O)cc2)[C@@]12C(=O)N(C(=O)OCCOC)c1ccc(C#CC3(O)CCCCCC3)cc12
z-score: -0.209

z-score recorded for this compound, `COC(=O)c1c2oc(c1C(=O)OC)C(=O)N(Cc1ccccc1)Cc1cn(nn1)C[C@H](Cc1ccccc1)NC(=O)N[C@H](CO)CC2` , is -0.962

z-score recorded for this compound, `CC(C)C(=C=CC[C@H](O)c1cccc(OCCO)c1)C[C@H](O)c1cc(Cl)cc(Cl)c1O` , is -0.568

z-score recorded for this compound, `CCOC(=O)C[C@H]1[C@H](OC(=O)c2cc3ccccc3oc2=O)[C@@H](NC(=O)c2ccc(-c3ccccc3)cc2)c2cc(OCCCO)ccc2N1C(=O)c1ccc2ccccc2n1` , is -0.359

z-score recorded for this compound, CCOc1cc(C(O)C2C=CC3C(=O)N(C)C(=O)C3N2Nc2ccccc2)ccc1O (centres undefined) , is -0.0768

z-score recorded for this compound, [N-]=[N+]=NCc1ccccc1[C@H]1OC(c2ccc(OCCCO)cc2)=N[C@@]1(CCS(=O)(=O)c1ccccc1)C(=O)NCC(O)CO (some centres undefined) , is -0.0433

z-score recorded for this compound, `C[N+](C)(C)CCCCCCNC(=O)[C@H]1C[C@H]2C(=O)N[C@@H](Cc3ccccc3)C(=O)N2[C@H]1c1ccc(O)cc1` , is 0.141

z-score recorded for this compound, C[C@H]1NC(=O)[C@@]23C(=O)N[C@@H](Cc4ccccc4)C2[C@H](C)[C@@]2(C)O[C@H]2C3/C=C/C/C=C\CNC(=O)[C@H](Cc2ccccc2)NC1=O (some centres undefined) , is 0.116

z-score recorded for this compound, Cc1ccccc1C(O)C1C=CC2C(=O)N(C)C(=O)C2N1N(c1ccccc1)c1ccccc1 (centres undefined) , is -0.274

z-score recorded for this compound, `COC(=O)c1ccc([C@H](NC(=O)c2ccco2)[C@]2(C)C[C@H]2C2CCCCC2)cc1` , is 0.089

z-score recorded for this compound, C=CCC(OC(C)=O)[C@@H]1[C@@H](N(Cc2cccc3ccccc23)C(=O)Cc2ccc(F)cc2)c2cc(OCCCO)ccc2N1C(=O)c1ccc2ccccc2n1 (some centres undefined) , is -0.172

z-score recorded for this compound, `O=C1c2ccccc2[C@](Cc2ccccc2I)(C(=O)NCC(F)(F)F)[C@H](c2ccc(CO)cc2)N1C1CCCCC1` , is -0.68

z-score recorded for this compound, `O=C1O[C@@H](c2ccccc2)[C@@H](c2ccccc2)N2[C@@H](c3ccc(OCCO)cc3)[C@]3(C(=O)Nc4ccccc43)[C@@H](C(=O)O)[C@H]12` , is -0.33

z-score recorded for this compound, `Cc1ccc(S[C@]2(C(=O)NCC(F)(F)F)CC(=O)N(C3CCCCC3)[C@@H]2c2ccc(CO)cc2I)cc1` , is 0.148

---

# subject of test: Homeobox protein Hox-A13 (Mus musculus) (UniProt Q62424)
# Sequence (Q62424 whole entry, looked up): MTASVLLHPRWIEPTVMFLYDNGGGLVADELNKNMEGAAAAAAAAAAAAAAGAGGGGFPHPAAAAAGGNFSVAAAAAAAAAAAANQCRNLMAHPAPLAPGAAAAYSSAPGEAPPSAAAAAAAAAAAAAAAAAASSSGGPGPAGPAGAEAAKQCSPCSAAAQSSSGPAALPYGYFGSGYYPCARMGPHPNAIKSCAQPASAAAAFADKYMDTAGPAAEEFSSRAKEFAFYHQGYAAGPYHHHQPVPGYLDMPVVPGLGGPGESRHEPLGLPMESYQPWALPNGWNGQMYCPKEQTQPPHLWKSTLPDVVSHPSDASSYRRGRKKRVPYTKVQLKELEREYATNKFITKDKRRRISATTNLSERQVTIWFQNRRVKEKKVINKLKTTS
# assay text: inhibitors of HoxA13-DNA binding, primary screen, biochemical, fluorescence polarization, labeled oligonucleotide (AID 1185)
# condition label: 15 min, higher = more signal, called active from +8 up or from −8 down
Measured z-score by item
Just the number, please.

compound: COCCCNC(=O)[C@@]1(Sc2ccc(C)cc2)CC(=O)N(C2CCCCC2)[C@@H]1c1ccc(CO)cc1
measured: -3.21
--
compound: COc1ccc([Si](C)(C)[C@H]2[C@H](CCn3cc([C@H](O)c4ccccc4)nn3)O[C@@]3(C(=O)N(Cc4ccc(N5C(=O)c6cccc7cccc5c67)cc4)c4ccccc43)[C@@H]2C)cc1
measured: -0.717
--
compound: C=CC[C@]1(C(=O)O)COC(c2ccc(OCCCO)cc2)=N1
measured: -0.685
--
compound: COc1ccc([Si](C)(C)[C@@H]2[C@@H](CCn3cc([C@H](O)c4ccccc4)nn3)O[C@]3(C(=O)N(Cc4ccc(N5CCC5=O)cc4)c4ccccc43)[C@H]2C)cc1
measured: -2.32

z-score recorded for this compound, `CC(C)C[C@@H]1NC(=O)[C@@H]2C[C@H](C(=O)NCCCCCN)[C@H](c3ccc(O)cc3)N2C1=O` , is -1.88

z-score recorded for this compound, `COC(=O)[C@@]1(Cc2ccccc2N=[N+]=[N-])N=C(c2ccc(OCCCO)cc2)O[C@H]1c1ccccc1N=[N+]=[N-]` , is -0.305

---

# assay text: E. coli DRC41 culture turbidity changes, primary screen, E. coli filamentation inducer project, strain DRC41, OD650, 48 h (AID 1152);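 also: E. coli MC1000 strain DRC41 lacking acrAB efflux pump and sulA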
# condition label: E. coli DRC41 (acrAB sulA), higher = more signal, called active from +8 up or from −8 down
quantity measured: z-score
Just the number, please.

compound: COC(=O)c1c2oc(c1C(=O)OC)C(=O)N(C)Cc1cn(nn1)C[C@H](Cc1ccccc1)NC(=O)N[C@H](CO)CC2
z-score: -0.878

compound: Cc1cc(C)c(C(O)C2C=CC3C(=O)NC(=O)C3N2Nc2ccc(Cl)cc2Cl)c(C)c1 (centres undefined)
z-score: -2.38

compound: CC(CO)N1C(=O)[C@@H]2[C@H]3C(=O)OCC=C[C@H]3OC23C=CCN(Cc2ccccc2)C(=O)[C@@H]13 (some centres undefined)
z-score: 2.36

z-score recorded for this compound, CN1C(=O)C2C=CC(C(O)c3cccc4ccccc34)N(N3CCCCC3)C2C1=O (centres undefined) , is -1.57
